System: Wolbachia pipientis
Assay: Anti-Wolbachia Cell-Based Screen
Type: functional
Design: scale not given: in the data most compounds retested in dose-response had high values
Settings: 5 µM
In all, about 48,000 compounds went through this assay and about 13,000 (27%) showed an effect of 50% or more. Some of the results follow.
Provide the recorded Percent Effect for the entries that follow.
Answers are plain numbers, in %.

- CC(C)Nc1ncccc1C(=O)NCc1ccnn1C: -5.174
- O=C(NCC1CCOC1)c1csc(-c2ccc(Cl)cc2)n1 (stereo unspecified): 107.7
- CCOc1ncccc1NC(=O)c1cc(C)c(C)s1: 7.979
- CN(CC(=O)Nc1ccc(Br)cn1)C(=O)Cc1ccc(O)cc1: -6.927

# return Percent Effect for each item in the list
1. CCOCC1CN(Cc2ccc3c(c2)OCO3)Cc2nccn2C1 (stereo unspecified)
2. CC(C)Sc1ncccc1C(=O)NCc1ccc(O)cc1
3. Cn1ccnc1CN1CCN(Cc2ccncc2)[C@@H]2CS(=O)(=O)C[C@@H]21
4. CC(C)Sc1ncccc1C(=O)NCc1ccoc1
5. O=C(NC1CCCC1)[C@H]1CC[C@@H]2[C@@H](CCN2c2ncc(F)cn2)O1.O=C(O)C(F)(F)F
6. CC1CN(Cc2ccccc2)CCCN1CCS(C)(=O)=O (stereo unspecified)
7. CCc1ccccc1CN1CCN(Cc2ncc[nH]2)[C@H]2CS(=O)(=O)C[C@H]21

Ans.
[77.74, 102.9, 120.1, 124.5, 6.364, -9.711, 21.76]

# return Percent Effect for each item in the list
1. O=S1(=O)C[C@@H]2[C@H](C1)N(S(=O)(=O)N1CCCC1)CCN2Cc1ccccc1
2. O=S(=O)(CC1CCCN1S(=O)(=O)C1CC1)c1ccccc1 (stereo unspecified)
3. CS(=O)(=O)N1CCCC1CS(=O)(=O)c1ccccc1 (stereo unspecified)

Ans.
[-24.95, 115.6, 121.3]

###

Tested on: Wolbachia pipientis
Assay: Anti-Wolbachia Cell-Based Screen
Assay type: functional
Parameters: scale not given: in the data most compounds retested in dose-response had high values
Conditions: 5 µM
The campaign covered roughly 48,000 compounds. About 13,000 (27%) showed an effect of 50% or more. The list shows a part of the results.
quantity kind: Percent Effect (%)
Numbers only, in %.

Known results for compounds:
• CC[C@@H](CO)NC(=O)c1cc(COc2ccc(OC)cc2Cl)[nH]n1 = -9.741
• CCOCCn1nc(C)cc1C(=O)N1CC[C@](O)(CC)[C@H](O)C1 = -19.56
• Cc1c(C(=O)N2CCCN(S(C)(=O)=O)CC2)cnn1C = 116.6

# return Percent Effect for each item in the list
1. CCc1noc(CN(C)C(=O)c2ccccc2-c2ncn[nH]2)n1
2. COc1cccc(-n2cc(-c3ccnc(NC(CO)C(C)C)n3)cn2)c1 (centres undefined)
3. CC(C)NC(=O)c1cc(-c2ccc(S(C)(=O)=O)cc2)nc2c1cnn2C
4. CCC1COCCN1C(=O)CNC(=O)c1ccsc1 (centres undefined)
5. CN(C)c1ccc(C(=O)N2Cc3cnc(C(C)(C)C)nc3C2)cc1
6. CC(C)n1ccnc1CN1C(=O)OC[C@@H]1c1ccccc1
7. CSc1ccc2c(C)cc(N[C@@H](C)CO)nc2c1

Ans.
1: -19; 2: 8.395; 3: 95.41; 4: -5.336; 5: 19.06; 6: 11.77; 7: -9.02

###

Tested on: Wolbachia pipientis
Experiment: Anti-Wolbachia Cell-Based Screen
Assay type: functional
Parameters: scale not given: in the data most compounds retested in dose-response had high values
Conditions: 5 µM
Screen size: about 48,000 compounds; about 13,000 (27%) showed an effect of 50% or more. Some of the results follow.
Provide the recorded Percent Effect for the entries that follow.
Numbers only, in %.

Known results for molecules:
• COc1ccccc1C(C)N1CCN(S(=O)(=O)N(C)C)CC1 (centres undefined) = -4.471
• O=C(NCC(O)c1ccc(Cl)s1)c1ccoc1 (centres undefined) = 3.126
• Cc1ccc(-n2nc(C)c3c(C)cc(OCC(=O)NC(C)C)nc32)cc1 = 109.8

Qu. Give Wolbachia pipientis Percent Effect for CC(Cn1cncn1)NC(=O)c1cn(Cc2ccccc2F)nn1 (centres undefined)
Ans. 8.945

###

Provide the recorded Percent Effect for the entries that follow.
Tested on: Wolbachia pipientis
Assay: Anti-Wolbachia Cell-Based Screen
Format: functional
Design: scale not given: in the data most compounds retested in dose-response had high values
Conditions: 5 µM
In all, about 48,000 compounds went through this assay and about 13,000 (27%) showed an effect of 50% or more. Some of the results follow.
Give bare numbers, in %.

• O=C(c1cc(C2CC2)on1)N1CC[C@]2(C[C@H](Oc3cccnc3)CO2)C1 = -8.078

# return Percent Effect for each item in the list
1. COc1cccc(OCCNCc2ccccc2)c1.O=C(O)C(=O)O
2. CN1CCN(C(=O)[C@@H]2CC[C@@H]3[C@@H](CCN3c3ncccn3)O2)CC1.O=C(O)C(F)(F)F.O=C(O)C(F)(F)F
3. CS(=O)(=O)c1cccc(Cl)c1C(=O)NCCN1C(=O)CCC1=O
4. Cc1cccc(OCC(=O)NS(=O)(=O)Cc2ccccc2)c1
5. COc1ccc(-c2ccnc3nc(N4CCCC4)[nH]c(=O)c23)cc1OC
6. CN(C)Cc1nc(C(C)(C)NC(=O)c2ccnn2C)no1

Ans.
[105.9, -4.531, -4.304, 1.498, 143.1, 0.5486]

# return Percent Effect for each item in the list
1. Cc1nc(-c2ccc(C(=O)O)cc2)cc(C2CCCN(C(C)C)C2)n1 (centres undefined)
2. COCCN(Cc1ccc(F)cc1Cl)C(=O)c1cccc[n+]1[O-]
3. CC1N(CC2CC2)C(=O)COC12CCN(C(=O)c1cnccn1)CC2 (centres undefined)

Ans.
96.58
-30.73
-1.759

# return Percent Effect for each item in the list
1. CS(=O)(=O)c1ccc(OCCNCc2cccc(O)c2)cc1
2. COc1ccccc1-c1ccnc2nc(N3CCCCC3)[nH]c(=O)c12
3. CCc1nccn1C1CCCN(C(=O)CCCc2ccccn2)C1 (centres undefined)
4. Cc1ccc(-c2csc3c(=O)[nH]c(N4CCCC(C(=O)O)C4)nc23)cc1 (centres undefined)
5. COc1ccccc1CC(=O)N1CCCC(n2nc(C)cc2C)C1 (centres undefined)
6. Cc1noc(C2CCC3(CCN(C(=O)c4cc(C5CC5)on4)CC3)O2)n1 (centres undefined)

Ans.
1. -6.003
2. 113.6
3. 115.4
4. 13.24
5. 7.114
6. 104.1

###

System: Wolbachia pipientis
Test: Anti-Wolbachia Cell-Based Screen
Assay type: functional
Set-up: scale not given: in the data most compounds retested in dose-response had high values
Settings: 5 µM
The whole screen tested about 48,000 compounds, of which about 13,000 (27%) showed an effect of 50% or more. The list shows a part of the results.
quantity kind: Percent Effect (%)
One number for each entry, in %.

Known results for compounds:
* COc1ccc(C)cc1C(=O)N1CCCC(n2cncn2)C1 (centres undefined) | 125.6
* CC(C)OCCC(=O)N(C)CCCc1cc(-c2ccccc2)no1 | 2.535
* Cc1nc(COCc2nc3c(o2)CN(C(=O)c2ccoc2)C3)cs1 | 0.193
* Nc1nc(CN2CCOC(Cn3cccn3)C2)nc2ccccc12 (centres undefined) | 54.57
* CCC(C)c1noc(C2CCN(C(=O)c3cccnc3)CC2)n1 (centres undefined) | -14.35
* O=c1cc2c(nn1CN1CCOCC1)CCC2 | 1.556
* COCCN(C)Cc1ccc(OC)c(OC(F)F)c1 | -5.242
* COc1cc(C(=O)N2CCCC(n3cncn3)C2)ccc1C (centres undefined) | 123.7
* CN1CCCC(CCC(=O)N2CCc3sc(C(=O)N(C)C)cc3C2)C1 (centres undefined) | -22.79
* CCc1cc(O)n2nc(C3CCN(C(=O)c4cccnc4)CC3)cc2n1 | 97.39

# return Percent Effect for each item in the list
1. Cn1ccc(C(=O)N2CCCC(Cc3cnc4ccccc4c3)C2)n1 (centres undefined)
2. O=C(Nc1ccccc1CCO)c1cccc(CN2CC[C@H](O)C2)c1
3. CC(C)COC(=O)N1[C@@H](c2ccco2)[C@@H](CO)C[C@]12CCCCNC2=O
4. COc1cc(C2(C(=O)NC3CCN(C4CC4)CC3)CC2)ccc1C
5. Cn1ccc(C(=O)N2CCCC(Cc3cccc4ncccc34)C2)n1 (centres undefined)
6. CCOC(=O)N1[C@@H](c2ccco2)[C@@H](CO)C[C@]12CCCCNC2=O

Ans.
1: 126.8; 2: -8.564; 3: 102; 4: -9.965; 5: -23.19; 6: 109.7

###

Provide the recorded Percent Effect for the entries that follow.
Tested on: Wolbachia pipientis
Assay: Anti-Wolbachia Cell-Based Screen
Type: functional
Parameters: scale not given: in the data most compounds retested in dose-response had high values
Details: 5 µM
Hit rate of the full screen: of about 48,000 compounds, about 13,000 (27%) showed an effect of 50% or more. The list shows a part of the results.
Answers are plain numbers, in %.

Known results for compounds:
• CN1CCC(Cc2cc(N(C)C)ncn2)C1 (stereo unspecified) = 110.8
• Cn1nnc2c1CCN(CC1CC1)C2COCC1CC1.O=C(O)C(F)(F)F (stereo unspecified) = 12.72
• Cc1cnn(CC2CN(Cc3nc4ccccc4s3)CCO2)c1 (stereo unspecified) = 112.2
• CCCn1ncc(C(=O)NC2CCN(CC3CCCO3)CC2)c1C (stereo unspecified) = 2.131
• Cc1nc(C)n(CC2CN(CCc3ccccn3)CCO2)n1 (stereo unspecified) = -80.6
• Cc1ccc(C(CNC(=O)c2cc(CC(C)C)nn2C)N(C)C)cc1 (stereo unspecified) = -5.66

# return Percent Effect for each item in the list
1. CC(C)CN1CCC(C(=O)NCCNC(=O)c2ccoc2)CC1
2. CN(C)C(CNC(=O)c1nc(N2CCOCC2)ncc1Cl)c1cccs1 (stereo unspecified)
3. c1ccc2sc(CN3CCOC(Cn4cncn4)C3)nc2c1 (stereo unspecified)
4. O=c1[nH]nc(CNc2ncc(Br)cn2)[nH]1

Ans.
9.069
4.739
-2.125
1.625

Qu. For CN1CCCC(Cc2cc(N(C)C)ncn2)C1 (stereo unspecified) , what is its reported Percent Effect?
Ans. 94.81
